- Tested on: ATP;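 further: ATP exposure 15 min at 22 °C before imaging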
- Test details: switch fluorescence ratio, 500 uM ATP over buffer (Cy3 cluster intensity, sum of 5 cycles each) (fold (ratio)); higher = stronger signal-on switching upon ATP binding; sequences stand for … in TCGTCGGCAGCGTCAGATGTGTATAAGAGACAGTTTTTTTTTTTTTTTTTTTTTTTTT…TC
- Assay setup: aptamer strand: ATP DNA aptamer (quencher-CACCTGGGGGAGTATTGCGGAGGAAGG + anchor), 100 nM annealed; ATP concentration: 500 uM
Observed property: switch fluorescence ratio
The response must contain the number and no unit.

Query block: Using the record for AAAGAGTCCT , state its measured switch fluorescence ratio.
Result block: 1.01

Query block: Supply recorded switch fluorescence ratio for TGTTGGGCCC here.
Result block: 1

Query block: Give me measured switch fluorescence ratio, please, for this sequence: TTGAGGGTCC
Result block: 1

Query block: Indicate its recorded switch fluorescence ratio; the sequence in question is ACAACGGTCT
Result block: 1.04

Query block: For the sequence GTGTGGGT , give its reported switch fluorescence ratio.
Result block: 1

Continuing:
Query block: Complete the entry with switch fluorescence ratio for TACTCGGGCT
Result block: 1.02

Query block: Fill in reported switch fluorescence ratio for this entry: ATAGCATGTA
Result block: 0.991

Query block: Please list switch fluorescence ratio recorded for the sequence TACTAGTTGT
Result block: 0.99

Query block: Indicate the recorded switch fluorescence ratio value for this sequence: GTTGGCGGGT
Result block: 1

Query block: Identify switch fluorescence ratio associated with the sequence TTAAACGGAG
Result block: 1.03

Query block: Note switch fluorescence ratio for the sequence shown: AAAGGGTAAT
Result block: 0.984

====

- Test system: ATP;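 further: ATP exposure 15 min at 22 °C before imaging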
- Test details: switch fluorescence ratio, 500 uM ATP over buffer (Cy3 cluster intensity, sum of 5 cycles each) (fold (ratio)); higher = stronger signal-on switching upon ATP binding; sequences stand for … in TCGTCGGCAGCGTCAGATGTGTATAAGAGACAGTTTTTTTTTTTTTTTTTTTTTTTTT…TC
- Assay setup: aptamer strand: ATP DNA aptamer (quencher-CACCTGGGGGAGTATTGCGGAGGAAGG + anchor), 100 nM annealed; ATP concentration: 500 uM
Observed property: switch fluorescence ratio
Form: value (number only, do not type unit).

Example sequences with recorded switch fluorescence ratio:
Query block: Answer with the recorded switch fluorescence ratio for the sequence listed here: GTTTGATAGA
Result block: 0.984

Query block: For the sequence TGGTATGCGT , report switch fluorescence ratio.
Result block: 1.02

Query block: Let me know recorded switch fluorescence ratio for CGTACTCTCA , thanks.
Result block: 1.04

Query block: Note down switch fluorescence ratio recorded for ATTATGTACT
Result block: 1.05

Query block: Note down switch fluorescence ratio recorded for AGAAATTGGG
Result block: 0.992

Query block: Give the reported switch fluorescence ratio for this sequence. GGATTGGAGT
Result block: 0.977

Query block: Answer with reported switch fluorescence ratio of TCATGAGGGA
Result block: 1.02

Query block: Given the sequence TTTATAACAG , write its reported switch fluorescence ratio.
Result block: 0.982

Query block: Note down switch fluorescence ratio recorded for TAGGGAATTA
Result block: 1.01

Query block: Entry GTTAGTAATC needs its switch fluorescence ratio filled in; supply it.
Result block: 1.06

Others:
Query block: Determine from records and report switch fluorescence ratio for TTTAGCAATG
Result block: 1.64

Query block: Let me know recorded switch fluorescence ratio for CTGCGGGGGG , thanks.
Result block: 0.999

====

- Tested on: ATP;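 further: ATP exposure 15 min at 22 °C before imaging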
- Test details: switch fluorescence ratio, 500 uM ATP over buffer (Cy3 cluster intensity, sum of 5 cycles each) (fold (ratio)); higher = stronger signal-on switching upon ATP binding; sequences stand for … in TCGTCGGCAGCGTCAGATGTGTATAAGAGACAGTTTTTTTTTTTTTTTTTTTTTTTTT…TC
- Assay setup: aptamer strand: ATP DNA aptamer (quencher-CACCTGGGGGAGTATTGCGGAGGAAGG + anchor), 100 nM annealed; ATP concentration: 500 uM
Observed property: switch fluorescence ratio
Answer with a number only.

Example cases with answers are listed next.
Query block: Supply recorded switch fluorescence ratio for GTTCAGTAGG here.
Result block: 0.968

Query block: Quickly give me recorded switch fluorescence ratio for CCAATGGTGA
Result block: 1.16

Query block: Return reported switch fluorescence ratio. Input sequence: GGTCGCACCA
Result block: 1.02

Query block: Give the measured switch fluorescence ratio for TTGGCTTTAT
Result block: 0.982

Query block: Using the record for AATTCAGGGG , state its measured switch fluorescence ratio.
Result block: 1.07

Query block: Name the recorded switch fluorescence ratio of the item CAGTTGGAGC in your answer.
Result block: 0.981

***
Query block: Write down switch fluorescence ratio measured for item TATTATATTT
Result block: 1

Query block: Specify reported switch fluorescence ratio for the sequence shown: TATAACGGAT
Result block: 1.01

Query block: Query switch fluorescence ratio for GATAGACGGT
Result block: 1.01

Query block: Give the reported value of switch fluorescence ratio for this record: GGGAGGCTTC
Result block: 1

====

As shown below, each of these sequences has a reported switch fluorescence ratio value.
- System: ATP;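 further: ATP exposure 15 min at 22 °C before imaging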
- Test details: switch fluorescence ratio, 500 uM ATP over buffer (Cy3 cluster intensity, sum of 5 cycles each) (fold (ratio)); higher = stronger signal-on switching upon ATP binding; sequences stand for … in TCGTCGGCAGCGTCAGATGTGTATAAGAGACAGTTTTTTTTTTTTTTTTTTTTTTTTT…TC
- Assay setup: aptamer strand: ATP DNA aptamer (quencher-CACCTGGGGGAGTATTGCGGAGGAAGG + anchor), 100 nM annealed; ATP concentration: 500 uM
I'd appreciate a reply containing only the number, no unit.

Use these answered entries as a reference point.
Query block: Retrieve switch fluorescence ratio measured for TGTAGATGGC and print it.
Result block: 1.03

Query block: Find the measured switch fluorescence ratio of GCGTCTAGGA and report it.
Result block: 0.984

Query block: For the sequence TTGGGGTAAA , give its measured switch fluorescence ratio value.
Result block: 1.03

Query block: Give reported switch fluorescence ratio value for GAAGGCCTAG
Result block: 0.976

New cases:
Query block: Please report switch fluorescence ratio for the following sequence: ATTGAGTTAG
Result block: 0.99

====

Each record here notes measured switch fluorescence ratio.
- Tested on: ATP;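 further: ATP exposure 15 min at 22 °C before imaging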
- Test details: switch fluorescence ratio, 500 uM ATP over buffer (Cy3 cluster intensity, sum of 5 cycles each) (fold (ratio)); higher = stronger signal-on switching upon ATP binding; sequences stand for … in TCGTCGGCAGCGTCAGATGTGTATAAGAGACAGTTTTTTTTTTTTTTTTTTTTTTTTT…TC
- Assay setup: aptamer strand: ATP DNA aptamer (quencher-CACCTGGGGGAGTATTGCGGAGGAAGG + anchor), 100 nM annealed; ATP concentration: 500 uM

Query block: Report its switch fluorescence ratio with ATP as the test system: TTTTTGGCCG
Result block: 1.06

More entries:
Query block: Report switch fluorescence ratio on ATP for this entry: TGTGTTTACC
Result block: 1.01

Query block: Would you please give the reported switch fluorescence ratio of GGCCGGCGTG with ATP?
Result block: 0.969

====

- Tested on: ATP;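 further: ATP exposure 15 min at 22 °C before imaging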
- Test details: switch fluorescence ratio, 500 uM ATP over buffer (Cy3 cluster intensity, sum of 5 cycles each) (fold (ratio)); higher = stronger signal-on switching upon ATP binding; sequences stand for … in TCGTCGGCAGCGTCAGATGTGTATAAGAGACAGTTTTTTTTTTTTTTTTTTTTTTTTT…TC
- Assay setup: aptamer strand: ATP DNA aptamer (quencher-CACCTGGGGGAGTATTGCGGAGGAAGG + anchor), 100 nM annealed; ATP concentration: 500 uM
Reported switch fluorescence ratio values follow for various sequences

Query block: Give me measured switch fluorescence ratio, please, for this sequence: GTATGCGAGG
Result block: 1

More entries:
Query block: Please report the measured switch fluorescence ratio for TCACTTCAAT
Result block: 1.03

Query block: Please report the measured switch fluorescence ratio for AATGTGGGTA
Result block: 0.982

Query block: Answer with reported switch fluorescence ratio of TCGTCGTAGC
Result block: 1.05

Query block: Find the measured switch fluorescence ratio of TTAGGGGTGC and report it.
Result block: 1.07

Query block: Please supply the value of reported switch fluorescence ratio for the item TACACGTTTT
Result block: 1.03

====

- System: ATP;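 further: ATP exposure 15 min at 22 °C before imaging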
- Test details: switch fluorescence ratio, 500 uM ATP over buffer (Cy3 cluster intensity, sum of 5 cycles each) (fold (ratio)); higher = stronger signal-on switching upon ATP binding; sequences stand for … in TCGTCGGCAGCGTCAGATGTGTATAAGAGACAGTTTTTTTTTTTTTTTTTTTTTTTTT…TC
- Assay setup: aptamer strand: ATP DNA aptamer (quencher-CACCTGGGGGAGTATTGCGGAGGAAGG + anchor), 100 nM annealed; ATP concentration: 500 uM
Given measured switch fluorescence ratio, output yes if it is greater than or equal to 1 and no if not.

Example entries and their recorded answers appear below.
Query block: Test whether the sequence AGACTGGTAC records switch fluorescence ratio of 1 or higher.
Result block: yes

Query block: Decide: switch fluorescence ratio of AGCATAAGCA >= 1?
Result block: yes

Query block: Determine whether measured switch fluorescence ratio meets or exceeds 1 for GATTGTGCCG
Result block: yes

Query block: Given CATTTTAGGC , state whether its switch fluorescence ratio is at least 1.
Result block: yes

Query block: Is the recorded value of switch fluorescence ratio equal to or greater than 1 for this sequence? CGTATAGGTG
Result block: yes

More entries:
Query block: Kindly determine if switch fluorescence ratio recorded for AAATTCTTCT is above or exactly 1.
Result block: yes
